Tested on: MDA-MB-468 breast
method: NCI tumour cell line growth inhibition, 48 h; in the data active means GI50 below about 0.43 µM; inactive means the rest
Where a SMILES comes first, the peptide text is derived from it. [ ]: non-standard residue; d: D form. The star is where a group is joined. Decanoyl = CCCCCCCCCC(=O)*; Leu(ol) = CC(C)C[C@H](N)CO; Iva = CC[C@](C)(N)C(=O)O; Aib = CC(C)(N)C(=O)O
Possible outcomes: 1 (active), -1 (inactive)

compound	answer_label
COc1cccc2c1C(=O)c1c(O)c3c(c(O)c1C2=O)CC(O)(/C(C)=N/NC(=O)CCCCC(=O)N/N=C(\C)C1(O)Cc2c(O)c4c(c(O)c2C(OC2CC(N)C(O)C(C)O2)C1)C(=O)c1c(OC)cccc1C4=O)CC3OC1CC(N)C(O)C(C)O1 (stereo not given)	1
COc1ncc(-c2ccc3nccc(C#CCCCCC(=O)O)c3c2)cc1NS(=O)(=O)c1ccc(F)cc1F	1
Fc1ccccc1CNc1nc(SCCN2CCOCC2)nc2c1cnn2CC(Cl)c1ccc(Br)cc1 (stereo not given)	-1
O=C(Nc1cccc(-n2ccc3c(NC(=O)c4ccccc4)nccc32)c1)Nc1ccc(Cl)c(C(F)(F)F)c1	1
Cc1c([C@H](C(Cl)Cl)[C@H](O)[C@H]2C[C@H](C)C(=O)O2)ccc2c1C(=O)[C@H]1[C@H]2C[C@@H](Br)[C@@]23O[C@@H](CO[C@H]2O)CC13C (stereo not given in full)	1
C=C1CC2(OC1=O)C(=O)N(C)c1ccc(I)cc12 (stereo not given)	-1
CCNCCCn1c2c(c3ccc(F)cc3c1=O)C(=O)c1cc(OC)cnc1-2	1
COc1cc(C(=O)c2c(-c3ccccc3)oc3c(OC)cccc23)cc(OC)c1O	-1
C[CH2][Sn]([CH2]C)([O]C(=O)c1cccc(OC)c1)[O][Sn]([CH2]C)([CH2]C)[O]C(=O)c1cccc(OC)c1	-1
Oc1ccc(CSc2nnc(-c3ccc(Cl)cc3)n2-c2ccccc2)c2cccnc12	-1
O=[N+]([O-])c1ccc(C(Br)c2ccc([N+](=O)[O-])cc2)cc1	-1
CCCCSc1nc(NCCc2c[nH]c3ccccc23)c(C#N)c(-c2ccccc2)n1	-1
CCCCCCCCCC(=O)NC(C)(C)C(=O)N1CCC[C@H]1C(=O)N[C@@H](CC(C)C)C(=O)N[C@@](C)(CC)C(=O)N[C@@H](CCC(N)=O)C(=O)N[C@H](CCC(N)=O)C(=O)NC(C)(C)C(=O)NC(C)(C)C(=O)N[C@@H](CCC(N)=O)C(=O)N[C@H](CC(C)C)C(=O)N[C@H](CO)CC(C)C (Decanoyl-[Aib]PL[Iva]Q[dQ][Aib][Aib]Q[dL][Leu(ol)])	-1
O=C(Nc1ccc(-n2cc(-c3ccncc3)c(-c3ccc(O)c(Cl)c3)n2)cc1)c1cc(C(F)(F)F)cc(C(F)(F)F)c1	-1
O=C(NC(=S)Nc1ccccn1)c1ccccc1	-1

----------
Tested on: NCI-H23 lung
method: NCI tumour cell line growth inhibition, 48 h
Each entry below carries its recorded TGI.
quantity: TGI (µM)

cpd_smiles	result_units	bound_sign	val
CN(C)CCn1c2ccccc2c2nc3ccc([N+](=O)[O-])cc3nc21	µM	=	3.64
CCCCN1C(=O)/C(=C\C(=O)c2cc3ccccc3oc2=O)c2ccccc21	µM	>	100
CCCCSc1nc(NCCc2c[nH]c3ccccc23)c(C#N)c(-c2ccccc2)n1	µM	=	27.9
O=Cc1cncc(-c2ccc3ncnc(N4CCc5cc(F)c(Cl)cc54)c3c2)c1	µM	=	27.1
